test system: Trypanosoma cruzi; experiment: Trypanosoma cruzi phosphomannomutase and mannose-1-phosphate guanylyltransferase assay; type: functional; design: scale not given: direction of the effect not stated beside the values; conditions: 10 µM
Entries annotated with measured Percent Effect
Quantity: Percent Effect (%)

>>> number("CCc1cnc(CN(C(C)=O)C2CCN(CCS(C)(=O)=O)C2)o1 (configuration not stated)")
0.291
>>> number("CC(C)Oc1ccc(CNC(=O)CC(F)(F)F)cc1F")
-2.52
>>> number("Cc1nc(C)n(C2CCCN(C(=O)c3csnn3)C2)n1 (configuration not stated)")
-2.92
>>> number("Cn1cc(C2CCCN2C(=O)Cc2n[nH]c3ccccc23)cn1 (configuration not stated)")
6.33
>>> number("N#Cc1ccc(CNC(=O)NC2CCN(CC(F)F)CC2)cc1")
10.8
>>> number("Cc1cnn(CC2CN(c3ncnc4ccccc34)CCO2)c1 (configuration not stated)")
8.03
>>> number("CCC(=O)N(C)C1CCN(Cc2ncc(C)c(OC)c2C)CC1")
2.25
>>> number("COc1ccccc1CNC(=O)N1CCCC(NS(C)(=O)=O)C1 (configuration not stated)")
-3.82
>>> number("CCCc1noc(CN2CCCC2c2ccsc2)n1 (configuration not stated)")
1.04
>>> number("O=C1[C@H]2CN(Cc3nccs3)C[C@H]2CN1c1ccsc1")
-2.25
>>> number("Cc1cnn(CC2CCCN2CC(=O)N(C)Cc2ccc(C)o2)c1 (configuration not stated)")
5.21
>>> number("Cc1cccc(N2Cc3nc(=O)[nH]n3C2=O)c1")
-4.52

###

organism: Homo sapiens; assay: To identify inhibition of the IFN signalling (Jak-Stat) pathway via expression of an eGFP reporter gene under the control of an IFN-stimulated response element (ISRE) containing MxA promoter.; type: functional; set-up: scale not given: direction of the effect not stated beside the values; conditions: 30 µM
Quantity: Percent Effect

>>> result("c1ccc(C2CCCN2Cc2nnnn2C2CC2)cc1 (stereo not given)")
"-12.1%"
>>> result("c1cnc(N2CCOC3(CCN(CC4CCCCC4)CC3)C2)nc1")
"10.1%"
>>> result("CSCC(=O)N1CCCC1c1noc(C2CC2)n1 (stereo not given)")
"4.6%"
>>> result("c1cnn(Cc2nnc(C3CCN(C4CCOCC4)CC3)n2C2CC2)c1")
"12.2%"
>>> result("CN(c1ccc(F)c(F)c1)S(=O)(=O)c1cc(C(=O)O)cs1")
"10.4%"
>>> result("Cc1cc2c(=O)n3c(nc2s1)CCN(C(=O)c1ccncc1)CC3")
"0.756%"
>>> result("CCn1cnnc1CNC(=O)NCC(c1cccs1)N1CCCC1 (stereo not given)")
"10.8%"
>>> result("CCN1CCN(S(=O)(=O)c2ncn(C)c2Cl)CC1")
"6.76%"
>>> result("CCn1c(C)cc(C(=O)N2CCCC(c3nc(C)no3)C2)c1C (stereo not given)")
"14.4%"
>>> result("O=C(CCc1nccs1)N1CCN(c2ncccn2)CC1")
"1.03%"
>>> result("O=C(c1ccc(C2CCCO2)s1)N1Cc2ccccc2C1 (stereo not given)")
"-5.94%"
>>> result("O=C(c1cscn1)N1CCC2(CCN(Cc3cccs3)CC2)C1")
"9.36%"
>>> result("CCc1cnc(N2CC3(CCN(C(=O)c4ccoc4)C3)C2)nc1")
"8.56%"
>>> result("CCc1ncnc2c1CCN(C(=O)Cc1ccccn1)CC2")
"12.9%"
>>> result("CN(Cc1cc[nH]n1)C(=O)c1cccc(CCC(C)(C)O)c1")
"-13.1%"
>>> result("CCn1c(C2CCCN(Cc3nccn3CCOC)C2)nn(C)c1=O (stereo not given)")
"-44.6%"
>>> result("CCC(C(=O)NCc1ccncc1)N(c1cccc(C)c1)S(C)(=O)=O (stereo not given)")
"18.8%"
>>> result("CC(=O)N1CCC(Oc2ccc(C#N)cn2)CC1")
"11.1%"
>>> result("Fc1ccc(CNCC2OCCc3cn(CC4CC4)nc32)cc1 (stereo not given)")
"9.33%"
>>> result("O=C1CC(N(C(=O)c2ccc3[nH]c4c(c3c2)CCCC4)C2CC2)C(=O)N1 (stereo not given)")
"-7.55%"
>>> result("CC(C)=CCN1CCOC(Cn2nc(C)cc2C)C1 (stereo not given)")
"8.7%"
>>> result("CCOC(=O)c1sc2ccsc2c1CN")
"20.9%"
>>> result("Cc1cc(C)n(C2CCCN(C(=O)CCNS(C)(=O)=O)C2)n1 (stereo not given)")
"12.6%"
>>> result("O=C(N[C@@H]1CN(c2ncccn2)[C@@H]2CCCO[C@@H]21)c1cnccn1")
"-16.7%"
>>> result("COCCN1CCN(C(=O)c2ccncc2F)Cc2cccnc21")
"0.197%"

###

species: Homo sapiens; assay: To identify inhibition of the IFN signalling (Jak-Stat) pathway via expression of an eGFP reporter gene under the control of an IFN-stimulated response element (ISRE) containing MxA promoter.; type: functional; set-up: scale not given: direction of the effect not stated beside the values; settings: 30 µM
I would appreciate it if you labelled entries 1 (yes) when Percent Effect is 10% or higher, otherwise 0 (no).

>>> label("Cc1noc(C)c1CN(C)CC1CCCN1c1cccnn1 (configuration not stated)")
"1 (yes)"
>>> label("COC1CCN(C(=O)CCc2c(C)nc3ccnn3c2C)CC1")
"0 (no)"
>>> label("CC(NC(=O)NCCCNS(C)(=O)=O)c1ccncc1 (configuration not stated)")
"0 (no)"
>>> label("O=C1CCCN1Cc1ncn2c1CN(C(=O)c1cccc(F)c1)CCC2")
"1 (yes)"
>>> label("CC1CCCN(C(=O)CCc2cccnc2)C1 (configuration not stated)")
"1 (yes)"
>>> label("CCn1c(Nc2ccccc2OC)nc2c(C)nn(C)c2c1=O")
"1 (yes)"
>>> label("COCCN1C[C@@H]2CN(Cc3ccsc3)CCC[C@]2(C(=O)O)C1")
"1 (yes)"
>>> label("O=C(N1CCCO1)[C@@]12CCO[C@@H]1CCN(Cc1ccccc1)C2")
"0 (no)"
>>> label("CCOc1ccc(CC(CNC(=O)c2occc2C)C(N)=O)cc1 (configuration not stated)")
"0 (no)"
>>> label("COCC1CN(Cc2cc(C)on2)Cc2cn(C)nc21 (configuration not stated)")
"0 (no)"
>>> label("CCCC(=O)NCc1cc(Br)c(OC)c(OC)c1")
"1 (yes)"
>>> label("CN(Cc1ccsc1)C(=O)c1cc2c([nH]c1=O)CCCC2=O")
"0 (no)"

###

Overview of recorded Percent Effect for various compounds
biological target: Sialic acid-binding Ig-like lectin 9 (Homo sapiens); assay: Hs-Siglec9 ALPHAscreen SOP 20170721; parameters: scale not given: direction of the effect not stated beside the values; conditions: 10 µM
Quantity: Percent Effect (%)

>>> number("Cn1nc(CNC(=O)C2CC2)cc1C1CC1")
7.61
>>> number("Cc1cccc2c1OCCC2NCc1c(C)nn(C)c1N(C)C (stereo not given)")
0.779
>>> number("CC(C)(C)SCCCC(=O)N1CCC(Nc2cccnn2)CC1")
13.1
>>> number("CCS(=O)(=O)c1ccccc1N1CCC(NC(=O)c2ccc[nH]2)CC1")
7.6
>>> number("Cc1ccc(N2CC3(COCCN(Cc4cccnc4)C3)OCC2=O)s1 (stereo not given)")
-4.32
>>> number("O=C(c1cc(=O)[nH]c(=O)[nH]1)N1CCCCC1c1ccc(F)cc1 (stereo not given)")
-6.89
>>> number("O=C(O)C1(Cc2ccccc2Cl)CCN(c2ncccc2F)CC1")
5.67
>>> number("CCCc1noc(CCC(=O)N2CCCC2c2ccsc2)n1 (stereo not given)")
6.07
>>> number("Cn1cnc2c(N3CCCC3)nc(C3CCNCC3)cc21")
0.534
>>> number("CNC(=O)c1ccc(C(=O)N2CCCC(n3cc(C)cn3)C2)cn1 (stereo not given)")
5.41
>>> number("Cn1cccc1C(=O)N1CCc2ncnc(C3CC3)c2CC1")
-5.45
>>> number("CC1CCN(S(=O)(=O)NCCCn2cncn2)CC1")
1.98
>>> number("COc1ccc(CCN2CCC(N3CCN(C)C3=O)CC2)cc1")
0.317
>>> number("COc1ccccc1OCC(=O)NCC(O)(c1ccccc1)C1CC1 (stereo not given)")
17
>>> number("CC(Cn1cccn1)NC(=O)Nc1nnc(C2CC2)s1 (stereo not given)")
7.36
>>> number("O=C(NCCNc1ncccn1)c1ccc(-c2ccco2)[nH]c1=O")
9.97
>>> number("O=C(NCc1cccs1)[C@H]1CC[C@@H]2[C@@H](CCN2c2ncccn2)O1")
-3.31
>>> number("Cc1cccc(-n2cc(C(=O)N3CCCC(n4ccnc4)C3)nn2)c1 (stereo not given)")
-13.5
>>> number("CCC(=O)N(C)C1CCN(Cc2ncc(C)c(OC)c2C)CC1")
-0.124
>>> number("CCOc1cccc(C(=O)N2CCN(c3nccc(OC)n3)CC2)c1")
-5.48
>>> number("Cn1cc2c(n1)C(COCC1CC1)CN(Cc1ccccn1)C2 (stereo not given)")
-2.97
>>> number("CCn1cnnc1C1CCN(C(=O)c2cnc(C3CC3)s2)CC1")
9.8
>>> number("CSCCC(=O)N1CCCC1c1ccsc1 (stereo not given)")
-10.9
>>> number("O=C(N[C@@H]1CN(c2ncccn2)C[C@@H]2CCCO[C@@H]21)c1cnccn1")
11.3
>>> number("CCC(=O)NCc1cc(Br)ccc1OC(F)F")
7.52
